- System: IGROV-1
- Protocol Summary: NCI tumour cell line growth inhibition, 48 h
Calls of active or inactive are those of the source. Cut-off read from the data, not from the text of the source: active = GI50 up to about 1.1 µM and inactive = higher.
Endpoint Name: GI50

OCC1OC(n2ccc3cnccc32)CC1O (stereo not given) = > 100 µM (inactive)
CC1(C)CCc2c(ccc(C(=O)/C=C/c3ccc(O)cc3)c2O)O1 = 9.1 µM (inactive)
O=c1[nH]cc(COCC(O)CO)c(=O)[nH]1 (stereo not given) = > 100 µM (inactive)
FC(F)(F)C(C1=NC(C(F)(F)F)(C(F)(F)F)N=C(N2CCOCC2)O1)C(F)(F)F = 19.6 µM (inactive)
S=C1c2cc(Cl)ccc2N=C(NC2CCCC2)C2CSCN12 (stereo not given) = > 100 µM (inactive)

This collection of values is drawn from ChEMBL document CHEMBL1201862.
